- Test system: RNA polymerase II Serine 5 phosphorylation in A549 cells overexpressing CDK7 mutant (C312S)
- assay.method.text: Imaging-based cellular RNA PolII Ser5 phosphorylation assay in A549 cells overexpressing CDK7-mutant (C312S)
- Assay type: cell-based, human
- condition.set: Homo sapiens, A549, A549 cells overexpressing CDK7 mutant (C312S); read-out: CDK7_ A549 mutant hCDK7(pIC50) (converted)
Property: IC50; scope: individual compounds

As a guide, the following entries are already answered.
[[record]]
compound = "CC#CC(=O)N1CC[C@H](N2CCC(c3cc(C)c4c(c3)Nc3ncnc(N5CCS(=O)(=O)CC5)c3CO4)CC2)C1 (single isomer, unassigned) [compound 134]"
readout_value = "> 10 µM"

[[record]]
compound = "C#Cc1cc(C2CCN(C3CN(C(=O)C#CC)C3)CC2)cc2c1O[C@@H](C)c1c(ncnc1N1CCS(=O)(=O)CC1)N2 [compound 191]"
readout_value = "> 10 µM"

[[record]]
compound = "Cc1cc(C2CCN(C3CN(C(=O)C#CCN(C)C)C3)CC2)cc2c1O[C@H](C)c1c(ncnc1N1CCS(=O)(=O)CC1)N2 [compound 169]"
readout_value = "4.17 µM"


Entry C=CC(=O)N1CCC(N2CC(c3cc4c(c(C5CC5)c3)O[C@@H](C)c3c(ncnc3N3CCS(=O)(=O)CC3)N4)C2)C1 (mixture of isomers) [compound 97] : reported IC50 = ?
> 10 µM

Please give the result for C=CC(=O)N1CC[C@H](N2CC(c3cc(C)c4c(c3)Nc3ncnc(N5CCOCC5)c3CO4)C2)C1 [compound 18] too.
> 10 µM

Please give the result for C=CC(=O)N1CC(N2CC[C@@H](c3ccc4c(c3)Nc3ncnc(N5CCOCC5)c3CO4)C2)C1 [compound 10] too.
> 10 µM
